- MEASUREMENT_PROTOCOL: Pilot in vivo study: midazolam film preparation applied on the oro-mucosal membrane, plasma levels by LC-MS/MS
- CONDITION_SET: human, plasma, other: applied on the oro-mucosal membrane, 1 mg
Structures can show the parent of a compound that is named as a salt.
PARAMETER_MEASURED: concentration at 6 min

Please look up its concentration at 6 min: Cc1ncc2n1-c1ccc(Cl)cc1C(c1ccccc1F)=NC2 [midazolam hydrochloride, Midazolam hydrochloride]
1 ng/mL
